pIC50 values by entry
system: human TRPA1 (Homo sapiens)
assay_explanation: cell-based
experimental_conditions: read-out: Activity (IC50)
pIC50: −log10 of the molar value.

Below: 5 compounds and their reported pIC50.
>  <compound>
C=CCOc1cc(F)cc(C2NC(=O)NC3=C2C(=O)c2ccccc23)c1 (stereo not drawn)

>  <system>
human TRPA1 (Homo sapiens)

>  <pIC50>
> 7.00

$$$$
>  <compound>
C=CCOc1cccc(C2NC(=O)N(Cc3ccccn3)C3=C2C(=O)c2ccccc23)c1 (stereo not drawn)

>  <system>
human TRPA1 (Homo sapiens)

>  <pIC50>
6.30 to 7.00

$$$$
>  <compound>
CCN1C(=O)NC(c2cccc(OC)c2)C2=C1c1ccccc1C2=O (stereo not drawn)

>  <system>
human TRPA1 (Homo sapiens)

>  <pIC50>
6.30 to 7.00

$$$$
>  <compound>
CCCOc1cccc(C2NC(=NC#N)NC3=C2C(=O)c2ccccc23)c1 (stereo not drawn)

>  <system>
human TRPA1 (Homo sapiens)

>  <pIC50>
< 6.00

$$$$
>  <compound>
N#CN=C1NC2=C(C(=O)c3ccccc32)C(c2ccccc2)N1 (stereo not drawn)

>  <system>
human TRPA1 (Homo sapiens)

>  <pIC50>
< 6.00

$$$$

(Q) Query: pIC50; subject: C=CCOc1cccc(C2NC(=O)NC3=C2C(=O)c2ccccc23)c1C (stereo not drawn)
(A) 6.30 to 7.00

(Q) Query: pIC50; subject: CCOc1cccc(C2NC(=O)N(CC#N)C3=C2C(=O)c2ccccc23)c1 (stereo not drawn)
(A) > 7.00

(Q) Query: pIC50; subject: C=CCC(F)c1cccc(C2NC(=O)NC3=C2C(=O)c2cccnc23)c1 (stereo not drawn)
(A) > 7.00

(Q) Query: pIC50; subject: COc1ccc(OC)c(C2NC(=O)NC3=C2C(=O)c2ccccc23)c1 (stereo not drawn)
(A) < 6.00

(Q) Query: pIC50; subject: O=C1NC2=C(C(=O)c3ccccc32)C(c2cccc(Cl)c2)N1 (stereo not drawn)
(A) < 6.00

(Q) Query: pIC50; subject: CN1C(=O)NC(c2cccc(C#N)c2)C2=C1c1ccccc1C2=O (stereo not drawn)
(A) < 6.00

* * *

system: human TRPA1 (Homo sapiens)
assay_explanation: cell-based
experimental_conditions: read-out: Activity (IC50)
quantity_name: IC50

Below: 8 compounds and their reported IC50.
>  <compound>
C=CCOc1cccc(C2NC(=S)NC3=C2C(=O)c2ccccc23)c1 (stereo not drawn)

>  <IC50>
< 100 nM

$$$$
>  <compound>
CCCOc1ccc(F)c(C2NC(=O)NC3=C2C(=O)c2cccnc23)c1F (stereo not drawn)

>  <IC50>
< 100 nM

$$$$
>  <compound>
O=C1NC2=C(C(=O)c3cc(O)ccc32)C(c2cc(O)ccc2Br)N1 (stereo not drawn)

>  <IC50>
> 1000 nM

$$$$
>  <compound>
CCOc1cccc(C2NC(=S)NC3=C2C(=O)c2ccccc23)c1 (stereo not drawn)

>  <IC50>
< 100 nM

$$$$
>  <compound>
CCOc1cccc(C2NC(=O)NC3=C2C(=O)c2ccccc23)c1 (stereo not drawn) [Compound 602]

>  <IC50>
100 to 500 nM

$$$$
>  <compound>
CCn1c(=O)oc2c(C3NC(=O)NC4=C3C(=O)c3ccccc34)cccc21 (stereo not drawn)

>  <IC50>
> 1000 nM

$$$$
>  <compound>
CCOc1cccc(C2NC(=O)NC3=C2C(=O)c2ccccc23)n1 (stereo not drawn)

>  <IC50>
500 to 1000 nM

$$$$
>  <compound>
O=C1NC2=C(C(=O)c3ccccc32)C(c2cc(O)ccc2Br)N1 (stereo not drawn)

>  <IC50>
100 to 500 nM

$$$$

From here, focus on the item given below.
(Q) Query: IC50; subject: O=C1NC2=C(C(=O)c3ccccc32)C(c2cccc(OC(=O)C3CC3)c2)N1 (stereo not drawn)
(A) > 1000 nM

* * *

system: human TRPA1 (Homo sapiens, UniProt O75762)
Sequence (O75762 whole entry): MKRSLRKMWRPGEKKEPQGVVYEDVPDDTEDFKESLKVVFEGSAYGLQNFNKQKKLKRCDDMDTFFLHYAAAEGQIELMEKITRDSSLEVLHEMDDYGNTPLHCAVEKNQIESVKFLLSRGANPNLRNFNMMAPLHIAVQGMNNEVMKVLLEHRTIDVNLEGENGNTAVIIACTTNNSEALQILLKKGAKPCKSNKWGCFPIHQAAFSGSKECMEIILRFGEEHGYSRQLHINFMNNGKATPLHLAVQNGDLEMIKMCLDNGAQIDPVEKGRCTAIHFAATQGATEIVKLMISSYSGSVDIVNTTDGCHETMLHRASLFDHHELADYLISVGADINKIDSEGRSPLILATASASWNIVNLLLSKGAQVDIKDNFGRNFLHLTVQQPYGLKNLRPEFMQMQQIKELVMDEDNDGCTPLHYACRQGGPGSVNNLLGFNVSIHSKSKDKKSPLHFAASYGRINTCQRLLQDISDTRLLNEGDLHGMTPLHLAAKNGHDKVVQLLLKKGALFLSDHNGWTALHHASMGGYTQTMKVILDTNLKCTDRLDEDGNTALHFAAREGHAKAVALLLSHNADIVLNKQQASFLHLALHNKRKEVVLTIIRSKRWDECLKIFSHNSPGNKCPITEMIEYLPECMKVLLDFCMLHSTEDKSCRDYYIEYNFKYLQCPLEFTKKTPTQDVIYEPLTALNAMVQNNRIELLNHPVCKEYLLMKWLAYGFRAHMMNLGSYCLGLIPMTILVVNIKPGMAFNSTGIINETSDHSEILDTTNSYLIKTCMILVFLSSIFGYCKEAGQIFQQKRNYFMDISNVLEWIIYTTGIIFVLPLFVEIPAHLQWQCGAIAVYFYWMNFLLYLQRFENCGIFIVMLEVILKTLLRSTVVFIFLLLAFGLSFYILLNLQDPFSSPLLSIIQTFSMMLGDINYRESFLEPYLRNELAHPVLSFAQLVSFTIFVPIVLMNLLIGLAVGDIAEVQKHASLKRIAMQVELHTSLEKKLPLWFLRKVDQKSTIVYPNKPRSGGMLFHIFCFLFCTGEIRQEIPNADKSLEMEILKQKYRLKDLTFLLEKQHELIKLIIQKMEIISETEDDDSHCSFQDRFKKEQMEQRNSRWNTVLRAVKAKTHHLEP
assay_explanation: cell-based
experimental_conditions: read-out: Activity (IC50)
quantity_name: IC50

Below: 5 molecules and their reported IC50.
>  <molecule>
CCCOc1cccc(C2NC(=O)N(CC#N)C3=C2C(=O)c2ccccc23)c1 (stereo not drawn)

>  <IC50>
< 100 nM

$$$$
>  <molecule>
O=C1NC2=C(C(=O)c3ccccc32)C(c2cccc(OCC3CCC3)c2)N1 (stereo not drawn)

>  <IC50>
> 1000 nM

$$$$
>  <molecule>
C=CCOc1cccc(C2NC(=O)N(Cc3ccccc3)C3=C2C(=O)c2ccccc23)c1 (stereo not drawn)

>  <IC50>
< 100 nM

$$$$
>  <molecule>
O=C1NC2=C(C(=O)c3c(O)cccc32)C(c2cc(O)ccc2Br)N1 (stereo not drawn)

>  <IC50>
> 1000 nM

$$$$
>  <molecule>
CCCCc1cccc(C2NC(=O)NC3=C2C(=O)c2ccccc23)c1 (stereo not drawn)

>  <IC50>
500 to 1000 nM

$$$$

(Q) Query: IC50; subject: O=C1NC2=C(C(=O)c3ccccc32)C(c2cccc(OCC(F)(F)F)c2)N1 (stereo not drawn)
(A) 100 to 500 nM

* * *

IC50 values by entry
system: human TRPA1 (Homo sapiens)
assay_explanation: cell-based
experimental_conditions: read-out: Activity (IC50)

Below: 2 compounds and their reported IC50.
>  <compound>
CCOc1cccc(C2NC(=O)NC3=C2C(=O)c2ccccc23)c1 (stereo not drawn) [Compound 412]

>  <quantity_name>
IC50

>  <reported_measurement>
100 to 500 nM

$$$$
>  <compound>
O=C1NC2=C(C(=O)c3c(Cl)cccc32)C(c2cc(O)ccc2Br)N1 (stereo not drawn) [Compound 101]

>  <quantity_name>
IC50

>  <reported_measurement>
< 100 nM

$$$$

(Q) Query: IC50; subject: COc1cccc(C2NC(=O)N(Cc3ccccc3)C3=C2C(=O)c2ccccc23)c1 (stereo not drawn) [Compound 625]
(A) 100 to 500 nM

(Q) Query: IC50; subject: O=C1NC2=C(C(=O)c3ccccc32)C(c2cccc3[nH]c(=O)oc23)N1 (stereo not drawn) [Compound 505]
(A) > 1000 nM

* * *

system: human TRPA1 (Homo sapiens, UniProt O75762)
assay_explanation: cell-based
experimental_conditions: read-out: Activity (IC50)
IC50 values by entry

>  <molecule>
C=CCOc1cccc(C2NC(=O)N(Cc3cccnc3)C3=C2C(=O)c2ccccc23)c1 (stereo not drawn)

>  <IC50>
< 100 nM

$$$$
>  <molecule>
CN1C(=O)NC(c2cccc(OCC3CC3)c2)C2=C1c1ccccc1C2=O (stereo not drawn)

>  <IC50>
100 to 500 nM

$$$$
>  <molecule>
CN1C(=S)NC2=C(C(=O)c3ccccc32)C1c1ccccc1 (stereo not drawn)

>  <IC50>
> 1000 nM

$$$$
>  <molecule>
COCCOc1cccc(C2NC(=O)NC3=C2C(=O)c2ccccc23)c1 (stereo not drawn)

>  <IC50>
100 to 500 nM

$$$$
>  <molecule>
O=C1NC2=C(C(=O)c3ccccc32)C(c2cccc3c2OCO3)N1 (stereo not drawn)

>  <IC50>
> 1000 nM

$$$$
>  <molecule>
COc1ccc(Br)c(C2NC(=O)NC3=C2C(=O)c2ccccc23)c1 (stereo not drawn)

>  <IC50>
> 1000 nM

$$$$

(Q) Query: IC50; subject: COc1cccc(C2NC(=O)NC3=C2C(=O)c2ccccc23)c1OC (stereo not drawn)
(A) > 1000 nM

(Q) Query: IC50; subject: C=CCOc1cccc(C2NC(=O)NC3=C2C(=O)c2ccccc23)c1O (stereo not drawn)
(A) > 1000 nM

(Q) Query: IC50; subject: O=C1NC2=C(C(=O)c3ccccc32)C(c2cccc(OC(F)F)c2)N1 (stereo not drawn)
(A) 100 to 500 nM

(Q) Query: IC50; subject: CCCC(F)c1cccc(C2NC(=O)NC3=C2C(=O)c2cccnc23)c1 (stereo not drawn)
(A) < 100 nM

(Q) Query: IC50; subject: C=CCOc1cccc(C2NC(=O)N(Cc3ccc(F)cc3)C3=C2C(=O)c2ccccc23)c1 (stereo not drawn)
(A) < 100 nM

(Q) Query: IC50; subject: C=CCOc1cccc(C2NC(=O)NC3=C2C(=O)c2ccccc23)c1Cl (stereo not drawn) [Compound 640]
(A) < 100 nM

(Q) Query: IC50; subject: O=C1NC2=C(C(=O)c3ccccc32)C(c2ccccc2O)N1 (stereo not drawn)
(A) > 1000 nM

(Q) Query: IC50; subject: CCN1C(=O)NC(c2cccc(OC(F)F)c2)C2=C1c1ccccc1C2=O (stereo not drawn)
(A) 100 to 500 nM

(Q) Query: IC50; subject: Nc1cccc(C2NC(=O)NC3=C2C(=O)c2ccccc23)c1 (stereo not drawn)
(A) > 1000 nM

(Q) Query: IC50; subject: O=C1NC2=C(C(=O)c3ccccc32)C(c2ccc3c(c2)OCO3)N1 (stereo not drawn)
(A) > 1000 nM

(Q) Query: IC50; subject: C=CCOc1cccc(C2NC(=O)N(Cc3ccncc3)C3=C2C(=O)c2ccccc23)c1 (stereo not drawn)
(A) > 1000 nM

(Q) Query: IC50; subject: CCOc1cccc(C2NC(=O)N(Cc3ccccc3)C3=C2C(=O)c2ccccc23)c1 (stereo not drawn)
(A) < 100 nM

Every entry's value here was drawn from patent US8530487B1.
